system: Bordetella pertussis; test: In vitro antibacterial activity against Bordetella pertussis ATCC 10380; type: functional
In this section, each of the compounds is paired with its reported MIC.
propertyMeasured: MIC

>>> reported("Cc1c(F)cc2c(=O)c(C(=O)O)cn3c2c1CC[C@H]3C")
"1.6 µg/mL"
>>> reported("Cc1c(F)cc2c(=O)c(C(=O)O)cn3c2c1CC[C@@H]3C")
"0.012 µg/mL"
>>> reported("Cc1c(F)cc2c(=O)c(C(=O)O)cn3c2c1CCC3")
"0.8 µg/mL"
>>> reported("Cc1c(F)cc2c(=O)c(C(=O)O)cn3c2c1CCC3C (racemic) [IBAFLOXACIN]")
"0.025 µg/mL"
